Target Desc: HLA-B*18:01
Assay Name: IEDB peptide-MHC binding, purified MHC/direct/fluorescence; filed as Kd, often an IC50 or EC50 that approximates it; bounds were set here for any values at or beyond the usual limits of such assays
Cond: source organism: Orthohantavirus andesense
pKd: −log10 of the molar value.

# Primary Sequence, Target Desc, pKd
measured = [
    ("TRDHVNLVL", "HLA-B*18:01", "≤ 4.70"),
]

====

Target Desc: HLA-A*02:12
Assay Name: IEDB peptide-MHC binding, purified MHC/direct/fluorescence; filed as Kd, often an IC50 or EC50 that approximates it; bounds were set here for any values at or beyond the usual limits of such assays
Cond: source organism: Entamoeba histolytica HM-1:IMSS

# Primary Sequence, Kd / nM
data = [
    ("IESNPLFPV", 922),
]

====

Target Desc: HLA-B*15:01
Assay Name: IEDB peptide-MHC binding, purified MHC/competitive/radioactivity; filed as Kd, often an IC50 or EC50 that approximates it; bounds were set here for any values at or beyond the usual limits of such assays
Cond: source organism: Dengue virus 4 Philippines/H241/1956
# Kd per entry
Assay Metric: Kd (nM)

# Primary Sequence, Target Desc, Assay Metric, Meas Value
records = [
    ("FALLAGFMAY", "HLA-B*15:01", "Kd", 6.41),
    ("SLVMLLVHY", "HLA-B*15:01", "Kd", 419),
]

====

Target Desc: HLA-A*26:02
Assay Name: IEDB peptide-MHC binding, purified MHC/competitive/fluorescence; filed as Kd, often an IC50 or EC50 that approximates it; bounds were set here for any values at or beyond the usual limits of such assays
Cond: source organism: Campylobacter jejuni subsp. jejuni NCTC 11168 = ATCC 700819
Assay Metric: Kd

# Primary Sequence, Assay Metric, Meas Value
records = [
    ("WFGHLASDW", "Kd", "≥ 20 µM"),
]

====

Target Desc: HLA-A*32:15
Assay Name: IEDB peptide-MHC binding, purified MHC/competitive/fluorescence; filed as Kd, often an IC50 or EC50 that approximates it; bounds were set here for any values at or beyond the usual limits of such assays
Cond: source organism: Escherichia coli HS
pKd: −log10 of the molar value.

# Primary Sequence, pKd
rows = [
    ("MMWATAQAL", 6.41),
]

====

Target Desc: HLA-A*02:19
Assay Name: IEDB peptide-MHC binding, purified MHC/competitive/fluorescence; filed as Kd, often an IC50 or EC50 that approximates it; bounds were set here for any values at or beyond the usual limits of such assays
Cond: source organism: Escherichia coli HS
pKd: −log10 of the molar value.

# Primary Sequence, pKd
records = [
    ("ISLWGSLLK", "≤ 4.70"),
]

====

Target Desc: HLA-B*07:02
Assay Name: IEDB peptide-MHC binding, purified MHC/competitive/radioactivity; filed as Kd, often an IC50 or EC50 that approximates it; bounds were set here for any values at or beyond the usual limits of such assays
Cond: source organism: Dengue virus 4 Philippines/H241/1956

# Primary Sequence, Kd / µM
data = [
    ("SPGYVLGIFL", 0.116),
    ("TPRSPSVEV", 0.00258),
]

====

Target Desc: HLA-A*01:01
Assay Name: IEDB peptide-MHC binding, purified MHC/competitive/radioactivity; filed as Kd, often an IC50 or EC50 that approximates it; bounds were set here for any values at or beyond the usual limits of such assays
Cond: source organism: Dengue virus 4 Philippines/H241/1956

# Primary Sequence, Target Desc, Rel, Kd / nM
records = [
    ("ASLVMLLVHY", "HLA-A*01:01", "=", 1830),
    ("VTYECPLLV", "HLA-A*01:01", "=", 343),
    ("FTTRHRKPTY", "HLA-A*01:01", "≥", 23600),
    ("FALLAGFMAY", "HLA-A*01:01", "=", 13500),
    ("RTWAYHGSY", "HLA-A*01:01", "=", 1280),
]

====

Target Desc: HLA-B*27:05
Assay Name: IEDB peptide-MHC binding, purified MHC/competitive/fluorescence; filed as Kd, often an IC50 or EC50 that approximates it; bounds were set here for any values at or beyond the usual limits of such assays
Cond: source organism: Corynebacterium glutamicum ATCC 13032
pKd: −log10 of the molar value.
Assay Metric: pKd

# Primary Sequence, Assay Metric, Meas Value
measured = [
    ("MSSAAHLLY", "pKd", "≤ 4.70"),
]

====

Target Desc: HLA-B*15:17
Assay Name: IEDB peptide-MHC binding, purified MHC/direct/fluorescence; filed as Kd, often an IC50 or EC50 that approximates it; bounds were set here for any values at or beyond the usual limits of such assays
Cond: source organism: Vibrio cholerae

# Primary Sequence, Target Desc, Kd
data = [
    ("KGHLPLLDK", "HLA-B*15:17", "≥ 20 µM"),
]

====

Target Desc: HLA-B*48:01
Assay Name: IEDB peptide-MHC binding, purified MHC/direct/fluorescence; filed as Kd, often an IC50 or EC50 that approximates it; bounds were set here for any values at or beyond the usual limits of such assays
Cond: source organism: Mycobacterium avium 104
Assay Metric: Kd

# Primary Sequence, Target Desc, Meas Value
records = [
    ("VRDVVMPAL", "HLA-B*48:01", "≥ 20 µM"),
]

====

Target Desc: HLA-B*15:09
Assay Name: IEDB peptide-MHC binding, purified MHC/direct/fluorescence; filed as Kd, often an IC50 or EC50 that approximates it; bounds were set here for any values at or beyond the usual limits of such assays
Cond: source organism: Yersinia pestis CA88-4125
Assay Metric: Kd

# Primary Sequence, Meas Value
data = [
    ("SRWAISHWL", "≥ 20 µM"),
]

====

Target Desc: HLA-B*40:02
Assay Name: IEDB peptide-MHC binding, purified MHC/competitive/radioactivity; filed as Kd, often an IC50 or EC50 that approximates it; bounds were set here for any values at or beyond the usual limits of such assays
Cond: source organism: SARS coronavirus Tor2
Assay Metric: Kd (nM)

# Primary Sequence, Target Desc, Rel, Meas Value
measured = [
    ("NEYTGNYQCG", "HLA-B*40:02", "≥", 28500),
    ("GEILLLEWLA", "HLA-B*40:02", "=", 16400),
    ("TEVMPVSMA", "HLA-B*40:02", "=", 79.7),
    ("RELYLNSSNV", "HLA-B*40:02", "=", 19.2),
    ("MEKLKALVA", "HLA-B*40:02", "=", 176),
]

====

# Kd per entry
Target Desc: HLA-A*68:02
Assay Name: IEDB peptide-MHC binding, purified MHC/direct/fluorescence; filed as Kd, often an IC50 or EC50 that approximates it; bounds were set here for any values at or beyond the usual limits of such assays
Cond: source organism: Zaire ebolavirus
Assay Metric: Kd

# Primary Sequence, Assay Metric, Meas Value
data = [
    ("VLMKQIPIW", "Kd", "≥ 20 µM"),
    ("TPSGKRLQI", "Kd", "≥ 20 µM"),
    ("NFFHASLAY", "Kd", "≥ 20 µM"),
]

====

Target Desc: HLA-A*33:01
Assay Name: IEDB peptide-MHC binding, purified MHC/competitive/radioactivity; filed as Kd, often an IC50 or EC50 that approximates it; bounds were set here for any values at or beyond the usual limits of such assays
Cond: source organism: Dengue virus 2 Jamaica/1409/1983
pKd: −log10 of the molar value.
# pKd per entry

# Primary Sequence, Target Desc, pKd
measured = [
    ("DENKWKSAR", "HLA-A*33:01", 6.51),
    ("TLITGNMSFR", "HLA-A*33:01", 6.54),
    ("MALFLEEMLR", "HLA-A*33:01", 7.57),
]

====

# pKd per entry
Target Desc: HLA-B*39:01
Assay Name: IEDB peptide-MHC binding, purified MHC/competitive/fluorescence; filed as Kd, often an IC50 or EC50 that approximates it; bounds were set here for any values at or beyond the usual limits of such assays
Cond: source organism: Zaire ebolavirus
pKd: −log10 of the molar value.

# Primary Sequence, pKd
data = [
    ("VLMKQIPIW", "≤ 4.70"),
    ("TPSGKRLQI", "≤ 4.70"),
    ("NFFHASLAY", "≤ 4.70"),
    ("TSACGIFLK", "≤ 4.70"),
]

====

Target Desc: HLA-A*03:01
Assay Name: IEDB peptide-MHC binding, purified MHC/competitive/fluorescence; filed as Kd, often an IC50 or EC50 that approximates it; bounds were set here for any values at or beyond the usual limits of such assays
Cond: source organism: Vibrio parahaemolyticus K5030
pKd: −log10 of the molar value.

# Primary Sequence, Target Desc, pKd
measured = [
    ("LQNFCQHLV", "HLA-A*03:01", "≤ 4.70"),
]
